biological target: 5-HT3 receptor (Cavia porcellus); construct: Distal colons were excised from male Hartley guinea pigs; from tissue; host or cells: distal colon strips of male Hartley guinea pigs; assay: contractile effects on the isolated colon from a guinea pig (5-HT3 receptor agonistic activity); design: species or system guinea pig (male Hartley); conditions: guinea pig; read-out: Max. response
Sequence (O70212 24-490 limits assumed): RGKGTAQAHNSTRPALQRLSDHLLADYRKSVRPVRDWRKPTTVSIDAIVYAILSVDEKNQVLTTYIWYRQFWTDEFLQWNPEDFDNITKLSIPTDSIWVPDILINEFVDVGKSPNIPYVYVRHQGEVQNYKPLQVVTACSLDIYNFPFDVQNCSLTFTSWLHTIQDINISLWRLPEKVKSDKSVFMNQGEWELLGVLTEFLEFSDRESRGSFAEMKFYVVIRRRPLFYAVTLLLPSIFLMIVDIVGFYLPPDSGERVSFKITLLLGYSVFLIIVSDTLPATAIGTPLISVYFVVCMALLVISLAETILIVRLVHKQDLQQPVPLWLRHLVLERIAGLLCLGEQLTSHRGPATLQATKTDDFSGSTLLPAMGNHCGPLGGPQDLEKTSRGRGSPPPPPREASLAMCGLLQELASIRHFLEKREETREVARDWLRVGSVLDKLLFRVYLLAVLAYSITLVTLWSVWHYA
readout type: Emax (%)

Recorded Emax, per entry:
**Q:** Look up and report measured Emax for this entry: O=C(O)/C=C/C(=O)O.c1ccc(-c2csc(C3CCCNC3)n2)cc1 (stereo not shown) [Ex. 46, fumarate]
**A:** 52

**Q:** Complete the entry with Emax for NCCc1nc2c(s1)Cc1ccccc1-2.O=C(O)/C=C/C(=O)O [Ex. 9, fumarate]
**A:** 75

**Q:** Respond only with Emax recorded for c1ccc2c(c1)Cc1sc([C@@H]3C[C@@H]4CCCN4C3)nc1-2 (relative stereo)
**A:** 57

**Q:** Look up Emax of c1csc(-c2csc(CC3CCCCN3)n2)c1 (stereo not shown) and report it.
**A:** 45

1: NC1(CCc2nc3c(s2)Cc2ccccc2-3)CCCCC1
2: c1ccc2c(c1)Cc1sc(C3CCNC3)nc1-2 (stereo not shown)
3: c1ccc2c(c1)Cc1sc(CCN3CCCCC3)nc1-2
**Q:** Sort (3 compounds) by Emax: min first. When ranking, write the labels in the order the request describes.
**A:** 1, 3, 2
(1: 23%, 3: 51%, 2: 77%)

The reported numbers originate from patent US5834499A.
